tested on: human Factor XI mRNA; experiment: Dose-dependent inhibition and IC50 in HepG2 cells, electroporation (Example 15); assay type: cell-based; details: electroporation, 3,333.33 nM
In the oligonucleotide strings, read from the 5' end, every base follows the letter of its sugar. An asterisk marks phosphorothioate; unmarked linkages are phosphodiester. Other units and linkages are bracketed, terminal groups are in braces. A string of capitals states the bases alone. e = 2'-O-(2-methoxyethyl) (MOE); [5mC] = 5-methylcytosine; d = 2'-deoxy (DNA)
Returns the class for an entry based on its percent inhibition of Factor XI mRNA. Class ranges: category 1 (below 50%), category 2 (50% to below 60%), category 3 (60% or more)

Consider the worked cases shown below.
416857 (antisense e[5mC]*eG*eG*e[5mC]*eA*dT*dT*dG*dG*dT*dG*d[5mC]*dA*d[5mC]*dA*eG*eT*eT*eT*e[5mC]) [compound 416857] | category 3
416849 (antisense eG*e[5mC]*eA*e[5mC]*eA*dG*dT*dT*dT*d[5mC]*dT*dG*dG*d[5mC]*dA*eG*eG*e[5mC]*e[5mC]*eT) [compound 416849] | category 2
445503 (antisense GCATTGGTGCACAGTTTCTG; 6-8-6 gapmer chemical modifications, chemistry not fully specified) [compound 445503] | category 1
445504 (antisense eG*eG*e[5mC]*eA*eT*eT*dG*dG*dT*dG*d[5mC]*dA*d[5mC]*dA*eG*eT*eT*eT*e[5mC]*eT) [compound 445504] | category 2
416851 (antisense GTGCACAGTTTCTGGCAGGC; 5-10-5 gapmer, wing sugar chemistry not given here, further chemistry not given here) [compound 416851] | category 3

Hey, which category is 416850 (antisense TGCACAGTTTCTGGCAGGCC; 5-10-5 gapmer, wing sugar chemistry not given here, further chemistry not given here) [compound 416850] in, do you know?
category 3

* * *

Collected percent inhibition of Factor XI mRNA, relative to untreated control cells values appear next to each entry.
system: human Factor XI mRNA; experiment: Dose-dependent inhibition in HepG2 cells, lipofectin (Example 4); type: cell-based; settings: 18.75 nM, 16 hours
In the oligonucleotide strings, read from the 5' end, every base follows the letter of its sugar. An asterisk marks phosphorothioate; unmarked linkages are phosphodiester. Other units and linkages are bracketed, terminal groups are in braces. A string of capitals states the bases alone. e = 2'-O-(2-methoxyethyl) (MOE); [5mC] = 5-methylcytosine; d = 2'-deoxy (DNA)
Mention the unit after the number when you answer.

A selection of reference data follows.
416892 (antisense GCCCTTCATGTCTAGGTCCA; 3-14-3 chimeric gapmer, wing sugar chemistry not given here, further chemistry not given here) [compound 416892] | 50%
416924 (antisense eG*eT*eG*d[5mC]*dA*d[5mC]*dA*dG*dT*dT*dT*d[5mC]*dT*dG*dG*d[5mC]*dA*eG*eG*e[5mC]) [compound 416924] | 38%
412206 (antisense e[5mC]*e[5mC]*eG*eT*eG*d[5mC]*dA*dT*d[5mC]*dT*dT*dT*d[5mC]*dT*dT*eG*eG*e[5mC]*eA*eT) [compound 412206] | 47%

From here, focus on the item given below.
Record 416896 (antisense eT*eT*eA*dT*dG*d[5mC]*d[5mC]*d[5mC]*dT*dT*d[5mC]*dA*dT*dG*dT*d[5mC]*dT*eA*eG*eG) [compound 416896] . Reported percent inhibition of Factor XI mRNA, relative to untreated control cells: 39%
